# measured target: T1, human MSLN-R3-3 polypeptide (human)
# T1 construct: also called human MSLN-R3-3 protein; hMSLN-R3-3
# test method notes: ELISA, coated antigen; antibody 0.1 nM

- binder: "S009-F3.80.22 (antibody, human IgG1, kappa, V domains shown, Human-murine chimeric antibody, human IgG1/kappa constant regions) VH: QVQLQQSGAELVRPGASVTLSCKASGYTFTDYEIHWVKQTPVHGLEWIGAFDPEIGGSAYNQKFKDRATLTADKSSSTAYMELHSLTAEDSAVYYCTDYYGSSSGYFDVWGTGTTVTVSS VL: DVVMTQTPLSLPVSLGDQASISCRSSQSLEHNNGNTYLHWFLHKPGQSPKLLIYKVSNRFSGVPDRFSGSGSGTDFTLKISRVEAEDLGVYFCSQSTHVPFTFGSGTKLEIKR"
  OD450: "1.47 OD450"
- binder: "S009-F3.16.1 (antibody, human IgG1, kappa, V domains shown, Human-murine chimeric antibody, human IgG1/kappa constant regions) VH: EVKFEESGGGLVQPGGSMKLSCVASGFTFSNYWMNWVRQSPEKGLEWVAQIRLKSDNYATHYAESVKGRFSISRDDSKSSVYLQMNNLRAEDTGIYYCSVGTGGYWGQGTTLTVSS VL: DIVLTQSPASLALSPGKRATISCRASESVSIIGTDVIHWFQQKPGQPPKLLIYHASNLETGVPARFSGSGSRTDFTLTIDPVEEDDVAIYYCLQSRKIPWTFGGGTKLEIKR"
  OD450: "0.08 OD450"
- binder: "S009-F3.74.20 (antibody, human IgG1, kappa, V domains shown, Human-murine chimeric antibody, human IgG1/kappa constant regions) VH: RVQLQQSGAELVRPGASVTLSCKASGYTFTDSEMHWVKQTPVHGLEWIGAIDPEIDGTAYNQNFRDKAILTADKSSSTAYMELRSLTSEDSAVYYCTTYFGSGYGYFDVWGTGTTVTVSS VL: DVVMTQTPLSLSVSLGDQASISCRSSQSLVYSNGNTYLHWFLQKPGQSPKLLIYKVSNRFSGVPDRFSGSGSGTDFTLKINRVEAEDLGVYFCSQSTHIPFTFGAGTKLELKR"
  OD450: "0.96 OD450"
- binder: "S009-F3.38.10 (antibody, human IgG1, kappa, V domains shown, Human-murine chimeric antibody, human IgG1/kappa constant regions) VH: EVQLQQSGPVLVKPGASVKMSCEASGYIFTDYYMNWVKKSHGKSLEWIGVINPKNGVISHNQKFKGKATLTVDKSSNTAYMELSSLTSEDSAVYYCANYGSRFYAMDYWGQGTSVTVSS VL: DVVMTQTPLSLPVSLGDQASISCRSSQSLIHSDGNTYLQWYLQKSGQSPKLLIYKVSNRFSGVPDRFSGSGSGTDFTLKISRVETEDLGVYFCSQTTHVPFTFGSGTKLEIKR"
  OD450: "0.08 OD450"
- binder: "S009-F3.45.21 (antibody, human IgG1, kappa, V domains shown, Human-murine chimeric antibody, human IgG1/kappa constant regions) VH: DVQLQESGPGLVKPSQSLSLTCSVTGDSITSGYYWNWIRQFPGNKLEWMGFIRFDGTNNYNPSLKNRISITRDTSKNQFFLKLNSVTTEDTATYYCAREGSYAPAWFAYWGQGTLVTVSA VL: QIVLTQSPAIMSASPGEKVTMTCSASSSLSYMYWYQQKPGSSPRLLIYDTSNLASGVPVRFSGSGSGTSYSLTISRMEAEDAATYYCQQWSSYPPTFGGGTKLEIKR"
  OD450: "0.08 OD450"
- binder: "S009-F3.7.3 (antibody, human IgG1, kappa, V domains shown, Human-murine chimeric antibody: murine VH/VL on human IgG1 heavy chain constant region and human kappa constant region) VH: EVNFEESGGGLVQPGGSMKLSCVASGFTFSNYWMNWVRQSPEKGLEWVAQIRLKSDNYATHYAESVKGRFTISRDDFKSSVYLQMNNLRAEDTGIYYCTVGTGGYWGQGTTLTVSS VL: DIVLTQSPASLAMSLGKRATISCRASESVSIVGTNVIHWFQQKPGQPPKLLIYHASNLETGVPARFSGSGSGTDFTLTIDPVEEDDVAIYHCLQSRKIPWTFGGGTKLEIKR"
  OD450: "0.07 OD450"
